Reported Ki, Carbonic anhydrase 9 (Homo sapiens).
Give bare numbers, in µM.

Worked examples follow.
Look up Ki for this molecule: NS(=O)(=O)c1ccc(NC(=O)Nc2ccc(/N=C3\C(=O)N(Cc4cccc(F)c4)c4ccccc43)cc2)cc1
0.0545

Look up Ki for this molecule: CN1C(=O)/C(=N\c2ccc(NC(=O)Nc3ccc(S(N)(=O)=O)cc3)cc2)c2cc(Br)ccc21
0.0092

Look up Ki for this molecule: N#Cc1ccc(CN2C(=O)/C(=N\c3ccc(NC(=O)Nc4ccc(S(N)(=O)=O)cc4)cc3)c3cc(Cl)ccc32)cc1
0.0347

Look up Ki for this molecule: Cc1ccc(CN2C(=O)/C(=N\c3ccc(NC(=O)Nc4ccc(S(N)(=O)=O)cc4)cc3)c3cc(Cl)ccc32)cc1
0.043

Look up Ki for this molecule: Cc1ccc(CN2C(=O)/C(=N\c3ccc(NC(=O)Nc4ccc(S(N)(=O)=O)cc4)cc3)c3ccccc32)cc1
0.0047

Continue with the next molecule.
Look up Ki for this molecule: CCCN1C(=O)/C(=N\c2ccc(NC(=O)Nc3ccc(S(N)(=O)=O)cc3)cc2)c2ccccc21
0.0196
